What Terminal HL was measured for each of the following?
- procedure details: PK of 20 kDa PEGylated relaxin polypeptides after a single subcutaneous injection in SD rats (Example 40)
- Type: in vivo, Sprague-Dawley (SD) rats
- stated conditions: 0.5 mg/kg SC, SD rats, non-compartmental
Non-standard residues stand in square brackets, D forms with d. No end group written: not given here. Phe(4-Ac) = CC(=O)c1ccc(C[C@H](N)C(=O)O)cc1
The reply should contain only the number, in h.

Identify the reported Terminal HL for the following entry. RLX-A-AR18-20KPEG-001: relaxin variant, B1 Ala, pAF at A chain position R18, 20K PEGylated (chain 1 QLYSALANKCCHVGCTKXSLARFC; chain 2 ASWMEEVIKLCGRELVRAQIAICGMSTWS; not fully specified; non-natural residues) 12.5

Identify the reported Terminal HL for the following entry. RLX-A-BV7-20KPEG-001: relaxin variant, B1 Ala, pAF at B chain position V7, 20K PEGylated (chain 1 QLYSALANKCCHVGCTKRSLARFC; chain 2 ASWMEE[Phe(4-Ac)](PEG 20 kDa)IKLCGRELVRAQIAICGMSTWS; not fully specified (bridges); ends and bridges not checked) 13.1

Identify the reported Terminal HL for the following entry. RLX-A-AA5-20KPEG-001: relaxin variant, B1 Ala, pAF at A chain position A5, 20K PEGylated (chain 1 QLYSXLANKCCHVGCTKRSLARFC; chain 2 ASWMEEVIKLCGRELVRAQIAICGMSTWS; not fully specified; non-natural residues) 12.2

Identify the reported Terminal HL for the following entry. RLX-A-AV13-20KPEG-001: relaxin variant, B1 Ala, pAF substituted for valine 13 in the A chain, 20K PEG attached (chain 1 QLYSALANKCCHXGCTKRSLARFC; chain 2 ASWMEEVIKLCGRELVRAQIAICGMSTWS; not fully specified; non-natural residues) 14.6

Identify the reported Terminal HL for the following entry. RLX-A-BW28-20KPEG-001: relaxin variant, B1 Ala, pAF at B chain position W28, 20K PEGylated (chain 1 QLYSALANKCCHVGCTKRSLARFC; chain 2 ASWMEEVIKLCGRELVRAQIAICGMST[Phe(4-Ac)](PEG 20 kDa)S; not fully specified (bridges); ends and bridges not checked) 13.9

---

- procedure details: PK of 20 kDa PEGylated relaxin polypeptides after a single subcutaneous injection in SD rats (Example 40)
- Type: in vivo, Sprague-Dawley (SD) rats
- stated conditions: 0.5 mg/kg SC, SD rats
Non-standard residues stand in square brackets, D forms with d. No end group written: not given here. Phe(4-Ac) = CC(=O)c1ccc(C[C@H](N)C(=O)O)cc1
Assign yes to entries whose Cmax meets or exceeds 500 ng/mL; assign no to the rest.

Confirm if Cmax reported for the substance RLX-A-BV7-20KPEG-001: relaxin variant, B1 Ala, pAF at B chain position V7, 20K PEGylated (chain 1 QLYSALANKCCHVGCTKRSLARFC; chain 2 ASWMEE[Phe(4-Ac)](PEG 20 kDa)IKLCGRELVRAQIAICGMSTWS; not fully specified (bridges); ends and bridges not checked) is 500 ng/mL or above. no

Confirm if Cmax reported for the substance RLX-A-AR18-20KPEG-001: relaxin variant, B1 Ala, pAF at A chain position R18, 20K PEGylated (chain 1 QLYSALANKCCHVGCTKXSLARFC; chain 2 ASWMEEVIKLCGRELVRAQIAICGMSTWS; not fully specified; non-natural residues) is 500 ng/mL or above. no

Confirm if Cmax reported for the substance RLX-A-AV13-20KPEG-001: relaxin variant, B1 Ala, pAF substituted for valine 13 in the A chain, 20K PEG attached (chain 1 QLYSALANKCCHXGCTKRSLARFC; chain 2 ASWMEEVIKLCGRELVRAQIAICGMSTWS; not fully specified; non-natural residues) is 500 ng/mL or above. yes

Confirm if Cmax reported for the substance RLX-A-AA5-20KPEG-001: relaxin variant, B1 Ala, pAF at A chain position A5, 20K PEGylated (chain 1 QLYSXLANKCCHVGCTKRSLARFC; chain 2 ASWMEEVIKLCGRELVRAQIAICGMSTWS; not fully specified; non-natural residues) is 500 ng/mL or above. no

---

What Mean serum Conc. was measured for each of the following?
- procedure details: PK of 20 kDa PEGylated relaxin polypeptides after a single subcutaneous injection in SD rats (Example 40)
- Assay type: in vivo, Sprague-Dawley (SD) rats
- stated conditions: 0.5 mg/kg SC, male SD rats, 58 hr
Non-standard residues stand in square brackets, D forms with d. No end group written: not given here. Phe(4-Ac) = CC(=O)c1ccc(C[C@H](N)C(=O)O)cc1
Remember to quote the unit after the number.

Identify the reported Mean serum Conc. for the following entry. RLX-A-AV13-20KPEG-001: relaxin variant, B1 Ala, pAF substituted for valine 13 in the A chain, 20K PEG attached (chain 1 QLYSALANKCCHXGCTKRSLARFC; chain 2 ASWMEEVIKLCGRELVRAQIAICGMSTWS; not fully specified; non-natural residues) 209.4 ng/mL

Identify the reported Mean serum Conc. for the following entry. RLX-A-BV7-20KPEG-001: relaxin variant, B1 Ala, pAF at B chain position V7, 20K PEGylated (chain 1 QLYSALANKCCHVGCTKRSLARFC; chain 2 ASWMEE[Phe(4-Ac)](PEG 20 kDa)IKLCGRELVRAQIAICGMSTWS; not fully specified (bridges); ends and bridges not checked) 63.5 ng/mL

Identify the reported Mean serum Conc. for the following entry. RLX-A-AA5-20KPEG-001: relaxin variant, B1 Ala, pAF at A chain position A5, 20K PEGylated (chain 1 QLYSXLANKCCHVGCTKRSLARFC; chain 2 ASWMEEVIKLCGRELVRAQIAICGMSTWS; not fully specified; non-natural residues) 62.4 ng/mL

Identify the reported Mean serum Conc. for the following entry. RLX-A-AR18-20KPEG-001: relaxin variant, B1 Ala, pAF at A chain position R18, 20K PEGylated (chain 1 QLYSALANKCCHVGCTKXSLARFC; chain 2 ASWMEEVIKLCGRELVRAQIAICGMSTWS; not fully specified; non-natural residues) 61.8 ng/mL

Identify the reported Mean serum Conc. for the following entry. RLX-A-BW28-20KPEG-001: relaxin variant, B1 Ala, pAF at B chain position W28, 20K PEGylated (chain 1 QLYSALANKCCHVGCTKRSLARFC; chain 2 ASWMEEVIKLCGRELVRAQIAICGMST[Phe(4-Ac)](PEG 20 kDa)S; not fully specified (bridges); ends and bridges not checked) 122.3 ng/mL

---

- procedure details: PK of 20 kDa PEGylated relaxin polypeptides after a single subcutaneous injection in SD rats (Example 40)
- Format: in vivo, Sprague-Dawley (SD) rats
- stated conditions: 0.5 mg/kg SC, male SD rats, 4 hr
Non-standard residues stand in square brackets, D forms with d. No end group written: not given here. Phe(4-Ac) = CC(=O)c1ccc(C[C@H](N)C(=O)O)cc1
experimental endpoint: Mean serum Conc. (ng/mL)
The reply should contain only the number, in ng/mL.

Identify the reported Mean serum Conc. for the following entry. RLX-A-AA5-20KPEG-001: relaxin variant, B1 Ala, pAF at A chain position A5, 20K PEGylated (chain 1 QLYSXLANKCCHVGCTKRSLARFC; chain 2 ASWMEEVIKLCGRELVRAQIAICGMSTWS; not fully specified; non-natural residues) 185.0

Identify the reported Mean serum Conc. for the following entry. RLX-A-BW28-20KPEG-001: relaxin variant, B1 Ala, pAF at B chain position W28, 20K PEGylated (chain 1 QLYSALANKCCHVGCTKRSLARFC; chain 2 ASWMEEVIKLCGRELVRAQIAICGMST[Phe(4-Ac)](PEG 20 kDa)S; not fully specified (bridges); ends and bridges not checked) 228.5

Identify the reported Mean serum Conc. for the following entry. RLX-A-BV7-20KPEG-001: relaxin variant, B1 Ala, pAF at B chain position V7, 20K PEGylated (chain 1 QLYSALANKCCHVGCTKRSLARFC; chain 2 ASWMEE[Phe(4-Ac)](PEG 20 kDa)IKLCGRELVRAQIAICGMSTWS; not fully specified (bridges); ends and bridges not checked) 248.5

Identify the reported Mean serum Conc. for the following entry. RLX-A-AV13-20KPEG-001: relaxin variant, B1 Ala, pAF substituted for valine 13 in the A chain, 20K PEG attached (chain 1 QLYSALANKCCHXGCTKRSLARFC; chain 2 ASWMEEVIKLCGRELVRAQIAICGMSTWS; not fully specified; non-natural residues) 345.7

Identify the reported Mean serum Conc. for the following entry. RLX-A-AR18-20KPEG-001: relaxin variant, B1 Ala, pAF at A chain position R18, 20K PEGylated (chain 1 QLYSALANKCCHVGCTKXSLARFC; chain 2 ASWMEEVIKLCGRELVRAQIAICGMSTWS; not fully specified; non-natural residues) 172.7
